Data origin: patent US20210380703A1

molecular target: human Fc (human); assay: ELISA, negative control
Lab note: compare optical density with 0.2 OD, writing fulfilled if less and not fulfilled if equal or more.

Observe how each entry below is paired with its result.
{"Binder": "376_G01 (antibody, V domains shown) VH: EVQLLESGGGLVQPGGSLRLSCAASGFTFDDYSMNWVRQAPGKGLEWVSGINYNSGYKSYADSVKGRFTISRDNSKNTLYLQMNSLRAEDTAVYYCARSATWHDTHLDYWGQGTLVTVSS VL: DIQMTQSPSSLSASVGDRVTITCRASQSILSYVNWYQQKPGKAPKLVIYAVTSRASGVPSRFSGSGSGTDFTLTISSLQPEDFATYYCQQSYELPLTFGGGTKVEIK", "Category label": "not fulfilled"}
{"Binder": "365_B10 (antibody, V domains shown) VH: EVQLLESGGGLVQPGGSLRLSCAASGFTFDDYSMHWVRQAPGKGLEWVASINYNSGYKGYADSVKGRFTISRDNSKNTLYLQMNSLRAEDTAVYYCARAANWHDTALDYWGQGTLVTVSS VL: DIQMTQSPSSLSASVGDRVTITCRASQSILRYLNWYQQKPGKAPKLLIYAATSRASGVPSRFSGSGSGTDFTLTISSLQPEDFATYYCQQSDNLPLTFGGGTKVEIK", "Category label": "not fulfilled"}
{"Binder": "376_F09 (antibody, V domains shown) VH: EVQLLESGGGLVQPGGSLRLSCAASGFTFDSYSMHWVRQAPGKGLEWVSSINYNGGYKSYADSVKGRFTISRDNSKNTLYLQMNSLRAEDTAVYYCARAATWHDTHLDYWGQGTLVTVSS VL: DIQMTQSPSSLSASVGDRVTITCRASQSILTYVNWYQQKPGKAPKLLIYAVTSRASGVPSRFSGSGSGTDFTLTISSLQPEDFATYYCQQSYDTPLTFGGGTKVEIK", "Category label": "not fulfilled"}
{"Binder": "375_G04 (antibody, V domains shown) VH: EVQLLESGGGLVQPGGSLRLSCAASGFTFSSYGMNWVRQAPGKGLEWVASINYNSGYTGYADSVKGRFTISRDNSKNTLYLQMNSLRAEDTAVYYCARGANWHDTHLDYWGQGTLVTVSS VL: DIQMTQSPSSLSASVGDRVTITCRASQSIVSYVNWYQQKPGKAPKLLIYAATSLASGVPSRFSGSGSGTDFTLTISSLQPEDFATYYCQQSYDSPLTFGGGTKVEIK", "Category label": "fulfilled"}

We now examine a further binder.
Identify whether the binder 374_A08 (antibody, V domains shown) VH: EVQLLESGGGLVQPGGSLRLSCAASGFTFDSYSMNWVRQAPGKGLEWVSNINYNSGYTSYADSVKGRFTISRDNSKNTLYLQMNSLRAEDTAVYYCARSATWHDTHLDYWGQGTLVTVSS VL: DIQMTQSPSSLSASVGDRVTITCRASQSIVTYLNWYQQKPGKAPKLLIYAATSLASGVPSRFSGSGSGTDFTLTISSLQPEDFATYYCQQSYDLPLTFGGGTKVEIK records optical density below 0.2 OD.
fulfilled
